Molecular target: T1, SNTA1, Q13424
T1 sequence (Q13424 82-180, limits assumed, looked up): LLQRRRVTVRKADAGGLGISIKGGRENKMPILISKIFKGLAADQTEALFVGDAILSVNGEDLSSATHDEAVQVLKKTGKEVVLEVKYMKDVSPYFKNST
Test: holdup assay
Set-up: key: below the threshold = too weak to quantify, mostly under pKd 3.1 to 4
Settings: plain residues with an end cap or a label only (N-terminal biotin on a linker: ttds)
Short version: pKd at least 4 is Satisfied, less is Not satisfied.

binder="PVRVCEETSL [OTULIN, Q96BN8]" category=Satisfied
binder="SKPTRRETEV [HPV35-E6, P27228]" category=Satisfied
binder="RHTTSTETAV [HPV30-E6, P36809]" category=Satisfied
binder="RLQRRRETQV [HPV18-E6, P06463]" category=Satisfied
binder="NDPAWDETNL [ARHGEF7, Q14155]" category="Not satisfied"
